System: MOLT-4 leukemia
Experiment: NCI-60 one-dose screen, 48 h (100 = growth as untreated, 0 = no growth, -100 = all killed)
Details: 10 µM unless noted
Description: Growth inhibition of the MOLT-4 human tumor cell line is measured as a screen for anti-cancer activity. Cells are grown in 96 well plates and exposed to the test compound for 48 hours. Compounds are tested at a single concentration, which is 10^-5 M for most compounds. The reported endpoint is percent growth (GI% or GIPRCNT), where numbers from 0 - 100% represent growth inhibition, and numbers from -100% - 0 represent cell death. For example, a value of 40 represents 60% growth inhibition. […]
Compounds without any hit were thinned out: in the full panel of roughly 83,000, 20% have a hit. Active and inactive are the calls of the source. Rule for the calls: active = growth percent below 10; inactive = the rest.
Parameter growth: see the listing below.
measure-name: growth

Clc1ccc2c(c1)N(CCCN1CCCC1)c1ccccc1S2    24.2% (inactive)
CC1(C)C2CC1C1(/C=N/NC(N)=S)C(C2)C(C#N)(C#N)C1(C#N)C#N (stereo unspecified)    11.3% (inactive)
COc1ccc2c(c1)c(-c1ccc(-c3cn(C)c4ccc(OC)cc34)o1)cn2C    63.5% (inactive)
Cc1ccc(C(=O)N/N=C/c2cccc([N+](=O)[O-])c2)cn1    92.1% (inactive)
COc1cc2oc(-c3ccc(O)cc3)cc(=O)c2c(O)c1-c1c(OC)cc(O)c2c(=O)cc(-c3ccc(O)cc3)oc12    32.6% (inactive)
O=C(/C=C/c1sc(Cl)nc1Cl)c1ccccc1    32.3% (inactive)
